Where do the numbers come from? From patent US20110190196A1.

target: ATP-binding cassette transporter A1 (ABCA1) (UniProt P41233 1-2261, limits assumed); assay: cell-based or functional assay
Sequence (P41233 whole entry): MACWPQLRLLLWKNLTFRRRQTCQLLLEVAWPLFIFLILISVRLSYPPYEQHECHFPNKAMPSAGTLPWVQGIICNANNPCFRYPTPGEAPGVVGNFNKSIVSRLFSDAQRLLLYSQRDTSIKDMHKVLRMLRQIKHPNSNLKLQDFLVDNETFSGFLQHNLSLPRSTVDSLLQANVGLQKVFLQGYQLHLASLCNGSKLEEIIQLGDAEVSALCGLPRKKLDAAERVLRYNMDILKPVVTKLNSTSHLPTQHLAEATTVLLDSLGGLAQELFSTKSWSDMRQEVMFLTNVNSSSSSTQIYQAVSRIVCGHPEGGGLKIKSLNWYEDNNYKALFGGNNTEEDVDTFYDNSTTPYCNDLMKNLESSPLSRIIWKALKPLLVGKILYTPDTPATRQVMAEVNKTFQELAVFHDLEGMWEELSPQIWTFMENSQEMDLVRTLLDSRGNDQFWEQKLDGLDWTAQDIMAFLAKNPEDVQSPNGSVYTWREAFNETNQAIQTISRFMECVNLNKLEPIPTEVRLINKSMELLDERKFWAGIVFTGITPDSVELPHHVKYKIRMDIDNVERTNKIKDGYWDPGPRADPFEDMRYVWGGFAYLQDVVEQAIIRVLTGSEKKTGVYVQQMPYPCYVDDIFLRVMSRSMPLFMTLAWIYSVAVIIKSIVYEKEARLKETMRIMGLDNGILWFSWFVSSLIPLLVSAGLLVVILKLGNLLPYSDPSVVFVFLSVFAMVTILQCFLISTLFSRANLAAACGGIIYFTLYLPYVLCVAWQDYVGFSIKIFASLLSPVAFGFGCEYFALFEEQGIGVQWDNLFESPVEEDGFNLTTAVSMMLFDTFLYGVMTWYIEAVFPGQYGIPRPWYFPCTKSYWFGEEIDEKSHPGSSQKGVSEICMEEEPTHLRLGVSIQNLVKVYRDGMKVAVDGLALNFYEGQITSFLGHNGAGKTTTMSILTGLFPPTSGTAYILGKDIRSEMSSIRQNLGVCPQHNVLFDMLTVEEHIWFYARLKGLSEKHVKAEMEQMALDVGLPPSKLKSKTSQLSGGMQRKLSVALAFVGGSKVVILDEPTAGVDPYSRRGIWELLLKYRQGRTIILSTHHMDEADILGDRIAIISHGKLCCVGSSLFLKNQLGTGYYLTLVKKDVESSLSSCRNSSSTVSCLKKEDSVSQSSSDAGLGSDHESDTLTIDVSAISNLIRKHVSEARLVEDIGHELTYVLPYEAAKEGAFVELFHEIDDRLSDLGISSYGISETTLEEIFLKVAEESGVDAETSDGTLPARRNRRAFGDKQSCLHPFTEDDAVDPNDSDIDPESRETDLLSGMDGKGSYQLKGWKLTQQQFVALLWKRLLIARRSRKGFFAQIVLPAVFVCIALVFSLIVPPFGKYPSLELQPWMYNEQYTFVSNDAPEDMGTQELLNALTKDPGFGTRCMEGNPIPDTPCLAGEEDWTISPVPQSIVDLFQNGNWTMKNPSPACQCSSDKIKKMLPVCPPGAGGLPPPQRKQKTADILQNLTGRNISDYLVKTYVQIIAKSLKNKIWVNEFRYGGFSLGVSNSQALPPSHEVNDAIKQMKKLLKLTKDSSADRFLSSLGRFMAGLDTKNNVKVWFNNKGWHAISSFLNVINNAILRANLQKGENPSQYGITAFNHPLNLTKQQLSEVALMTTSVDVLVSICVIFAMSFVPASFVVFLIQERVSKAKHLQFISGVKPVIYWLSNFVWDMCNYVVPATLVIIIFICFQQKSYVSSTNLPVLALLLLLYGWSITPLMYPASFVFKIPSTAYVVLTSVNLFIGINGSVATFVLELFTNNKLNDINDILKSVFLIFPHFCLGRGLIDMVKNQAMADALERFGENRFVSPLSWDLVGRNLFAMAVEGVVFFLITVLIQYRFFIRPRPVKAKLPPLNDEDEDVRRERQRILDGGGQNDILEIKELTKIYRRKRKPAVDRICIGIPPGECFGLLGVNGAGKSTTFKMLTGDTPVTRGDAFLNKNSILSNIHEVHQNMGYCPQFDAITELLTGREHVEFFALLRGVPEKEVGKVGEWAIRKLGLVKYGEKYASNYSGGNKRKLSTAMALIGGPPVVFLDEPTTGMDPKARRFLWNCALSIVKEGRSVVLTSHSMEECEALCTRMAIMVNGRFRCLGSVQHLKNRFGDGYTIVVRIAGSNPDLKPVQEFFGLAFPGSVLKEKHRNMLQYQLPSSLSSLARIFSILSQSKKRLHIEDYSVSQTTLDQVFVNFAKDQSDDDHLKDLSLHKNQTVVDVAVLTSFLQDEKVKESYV
quantity: % cholesterol efflux/4 hours at 10 µg/ml (%)

A: EVREKLEAWFELFREFAERFKS [N965-2]
B: EVREKLEAWFELFREFLERF [N965-7]
C: ELREKLEAWRELFEEFFARFLS [N965-9]
query: Hello, I need these entries ordered by % cholesterol efflux/4 hours at 10 µg/ml, highest reading first. Thanks! Record the ranking as a list of labels in the requested order.
result: A, B, C
